Hemolysis (%) 375 µM values for the compounds below.
System: horse erythrocytes
Experiment: Hemolytic activity (hemoglobin release from erythrocytes)
Assay type: cell-based
Settings: D-amino acid lipopeptides, 375 µM, TRIS buffer pH 7.2, 1 h, 37 °C, relative to melittin, ± confidence interval (α = 0.05)
Description: The hemolytic activity of the compounds was evaluated by determining hemoglobin release from erythrocyte suspensions of horse blood (5% vol/vol) (Oxoid) as previously described. […] Then, the tubes were centrifuged at 3500 g for 10 min, 80 μL aliquots of the supernatant transferred to 100-well microplates (Bioscreen), diluted with 80 μL water, and the absorbance measured at 540 nm (Bioscreen). […]
Where a SMILES comes first, the peptide text is derived from it. [ ]: non-standard residue; d: D form. The star is where a group is joined. Lauroyl = CCCCCCCCCCCC(=O)*
Supply the numeric figure in %, leaving out any unit text.

COMPOUND	OBSERVED_VALUE
CCCCCCCCCCCC(=O)NCCCC[C@H](NC(=O)[C@H](Cc1ccc(O)cc1)NC(=O)[C@H](CCCCN)NC(=O)[C@H](CC(C)C)NC(=O)[C@@H](NC(=O)[C@H](CCCCN)NC(=O)[C@H](CCCCN)NC(=O)[C@@H](Cc1ccccc1)NC(=O)[C@H](CC(C)C)NC(=O)[C@H](CCCCN)NC(=O)[C@H](CCCCN)NC(C)=O)[C@@H](C)CC)C(N)=O [BP476, Ac-KKLfKKILKYK(COC11H23)-NH2] (Ac-KKL[dF]KKILKYK(Lauroyl)-NH2)	94
CCCCCCCCCCCC(=O)NCCCC[C@H](NC(=O)[C@H](CCCCN)NC(=O)[C@H](CCCCN)NC(=O)[C@@H](Cc1ccccc1)NC(=O)[C@H](CC(C)C)NC(=O)[C@H](CCCCN)NC(=O)[C@H](CCCCN)NC(C)=O)C(=O)N[C@@H](CC(C)C)C(=O)N[C@@H](CCCCN)C(=O)N[C@@H](Cc1ccc(O)cc1)C(=O)N[C@@H](CC(C)C)C(N)=O [BP489, Ac-KKLfKKK(COC11H23)LKYL-NH2] (Ac-KKL[dF]KKK(Lauroyl)LKYL-NH2)	100
CCCC(=O)NCCCC[C@H](NC(=O)[C@H](CCCCN)NC(C)=O)C(=O)N[C@@H](CC(C)C)C(=O)N[C@H](Cc1ccccc1)C(=O)N[C@@H](CCCCN)C(=O)N[C@@H](CCCCN)C(=O)N[C@H](C(=O)N[C@@H](CC(C)C)C(=O)N[C@@H](CCCCN)C(=O)N[C@@H](Cc1ccc(O)cc1)C(=O)N[C@@H](CC(C)C)C(N)=O)[C@@H](C)CC [BP486, Ac-KK(COC3H7)LfKKILKYL-NH2]	14

Data request: # get_value(readout='Hemolysis (%) 375 µM', item= CCCCCCCCCCCC(=O)NCCCC[C@H](NC(=O)[C@H](CC(C)C)NC(=O)[C@@H](NC(=O)[C@H](CCCCN)NC(=O)[C@H](CCCCN)NC(=O)[C@@H](Cc1ccccc1)NC(=O)[C@H](CC(C)C)NC(=O)[C@H](CCCCN)NC(=O)[C@H](CCCCN)NC(C)=O)[C@@H](C)CC)C(=O)N[C@@H](Cc1ccc(O)cc1)C(=O)N[C@@H](CC(C)C)C(N)=O [BP497, Ac-KKLfKKILK(COC11H23)YL-NH2] )
Data returned: 100

The values you see were collected from paper PMC8233901.
